Data origin, for the record: patent US12116358B2

- SYSTEM: SETD2(1434-1711) (Homo sapiens)
- Construct: SETD2 (1434-1711) Assay; catalogue N/A
- Sequence (Q9BYW2 1434-1711): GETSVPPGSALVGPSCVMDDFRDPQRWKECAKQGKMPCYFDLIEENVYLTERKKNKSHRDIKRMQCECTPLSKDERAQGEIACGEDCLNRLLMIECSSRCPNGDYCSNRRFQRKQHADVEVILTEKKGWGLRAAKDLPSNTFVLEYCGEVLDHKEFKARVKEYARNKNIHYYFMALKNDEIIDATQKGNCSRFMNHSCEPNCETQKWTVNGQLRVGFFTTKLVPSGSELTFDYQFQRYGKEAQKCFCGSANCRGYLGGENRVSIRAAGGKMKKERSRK
- PROTOCOL NOTES: SETD2 (1434-1711) assay
- Type: biochemical
- EXPERIMENTAL PARAMETERS: read-out: SETD2 (1434-1711)
MEASURED ENDPOINT: IC50 (nM)

a: CC(=O)N1C(C)CN(C2CCCC(NC(=O)c3cc4c(F)ccc(C)c4[nH]3)C2)CC1C (centres unmarked) [compound 1163]
b: Cc1ccc(F)c2cc(C(=O)Nc3cccc(N4CC5CC4CN5C)c3)[nH]c12 (centres unmarked)
[ask] Between the entries labelled a and b , which has a larger IC50 value on record? Indicate your choice by writing its label.
[reply] a
(a: 1600 nM, b: 70 nM)

P: Cc1ccc(F)c2cc(C(=O)Nc3cccc(N4CCN(C)C(C(F)(F)F)C4)c3)[nH]c12 (centres unmarked)
Q: Cc1cccc2cc(C(=O)Nc3cccc(N4CCC(NC(=O)CN)CC4)c3)[nH]c12
[ask] Between the entries labelled P and Q , which has a larger IC50 value on record? Indicate your choice by writing its label.
[reply] Q
(Q: 200 nM, P: 100 nM)

A: Cc1ccc(F)c2cc(C(=O)N[C@@H]3CCC[C@@H](N4CCN(C(=O)CN(C)C)CC4)C3)[nH]c12
B: COc1cccc(CNCC(O)COc2cnc(C(NC(=O)c3cc4cccc(C)c4[nH]3)C3CC3)c(C)c2)c1 (centres unmarked)
[ask] Lab note: check whether A or B has the lower measured IC50. Indicate your choice by writing its label.
[reply] B
(B: 500 nM, A: 4700 nM)

P: Cc1ccc(F)c2cc(C(=O)Nc3cccc(N4CCC5(CCNCC5)C4)c3)[nH]c12
Q: NCCC(=O)NC1CCC(NC(=O)c2cc3cccc(Br)c3[nH]2)CC1 (centres unmarked)
R: Cc1ccc(F)c2cc(C(=O)Nc3ccc4ncc(CN(C)C)n4c3)[nH]c12
[ask] Could you please order the items by IC50, going from the lowest number to the highest? Put the labels in the requested order and write them down.
[reply] P, R, Q
(P: 6 nM, R: 800 nM, Q: 8300 nM)

1: Cc1ccc(F)c2cc(C(=O)Nc3cccc(N4CCC(N5CCOCC5)CC4)c3)[nH]c12
2: COc1cccc2cc(C(=O)NC(CCC(=O)N3CCOCC3)c3ncccc3C)[nH]c12 (centres unmarked)
[ask] Lab note: check whether 1 or 2 has the lower measured IC50. Indicate your choice by writing its label.
[reply] 1

A: Cc1ccc(F)c2cc(C(=O)Nc3cccc(-c4cn[nH]c4)c3)[nH]c12
B: Cc1ccc(F)c2cc(C(=O)NC3CCCC(N4CCn5cnnc5C4)C3)[nH]c12 (centres unmarked)
C: Cc1cc(-c2ncc[nH]2)cnc1C(NC(=O)c1cc2cccc(C)c2[nH]1)C1CC1 (centres unmarked)
[ask] // ranking: key=IC50, reverse=True Put the labels in the requested order and write them down.
[reply] C, A, B
(C: 1400 nM, A: 200 nM, B: 100 nM)
